Target of assay: T1, human HER-2 extracellular domain (HER-2 ECD) (human, UniProt P04626 23-646)
T1 construct: range 23-646; also called erbB2; HER2 protein
Assay summary: competitive Fab-phage ELISA
Assay endpoint: pIC50
Conceptually, pIC50 converts a concentration in mol/L into minus its log10.

Below, each entry is followed by its recorded pIC50 result.
Clone G37 (SX-surface), purified Fab (Fab, V domains shown) VH: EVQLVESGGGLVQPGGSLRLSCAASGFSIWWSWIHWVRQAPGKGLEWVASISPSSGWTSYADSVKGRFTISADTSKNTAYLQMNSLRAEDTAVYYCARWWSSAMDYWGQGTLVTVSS VL: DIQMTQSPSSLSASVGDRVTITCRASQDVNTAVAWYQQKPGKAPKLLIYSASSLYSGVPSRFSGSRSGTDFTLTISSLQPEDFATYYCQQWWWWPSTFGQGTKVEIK : 9.51
G40 (Fab, V domains shown) VH: EVQLVESGGGLVQPGGSLRLSCAASGFSIWWSWIHWVRQAPGKGLEWVASISPSSGWTSYADSVKGRFTISADTSKNTAYLQMNSLRAEDTAVYYCARWSSWGLDYWGQGTLVTVSS VL: DIQMTQSPSSLSASVGDRVTITCRASQDVNTAVAWYQQKPGKAPKLLIYSASSLYSGVPSRFSGSRSGTDFTLTISSLQPEDFATYYCQQWSWWPSTFGQGTKVEIK : 8.74
G36 (Fab, V domains shown) VH: EVQLVESGGGLVQPGGSLRLSCAASGFSIWWSWIHWVRQAPGKGLEWVASISPSSGWTSYADSVKGRFTISADTSKNTAYLQMNSLRAEDTAVYYCARWSSSAFDYWGQGTLVTVSS VL: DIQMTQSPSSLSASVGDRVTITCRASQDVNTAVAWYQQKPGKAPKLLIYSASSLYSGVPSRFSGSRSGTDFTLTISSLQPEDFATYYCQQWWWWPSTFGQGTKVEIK : 8.92

# pIC50 of G30 (Fab, V domains shown) VH: EVQLVESGGGLVQPGGSLRLSCAASGFSIWWSWIHWVRQAPGKGLEWVASISPSSGWTSYADSVKGRFTISADTSKNTAYLQMNSLRAEDTAVYYCARWWSSALDYWGQGTLVTVSS VL: DIQMTQSPSSLSASVGDRVTITCRASQDVNTAVAWYQQKPGKAPKLLIYSASSLYSGVPSRFSGSRSGTDFTLTISSLQPEDFATYYCQQSWWWPSTFGQGTKVEIK = 8.90

Measured pIC50, G35 (Fab, V domains shown) VH: EVQLVESGGGLVQPGGSLRLSCAASGFSISWSWIHWVRQAPGKGLEWVASIWPSSGWTSYADSVKGRFTISADTSKNTAYLQMNSLRAEDTAVYYCARWWSSALDYWGQGTLVTVSS VL: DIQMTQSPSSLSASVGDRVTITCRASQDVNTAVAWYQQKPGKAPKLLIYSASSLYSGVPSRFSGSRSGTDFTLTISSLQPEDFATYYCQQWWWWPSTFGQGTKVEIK : 9.19
